Reference source: patent US20230167103A1

tgt: human DGKζ (Homo sapiens, UniProt Q13574)
Construct: made in house; host or cells: Sf9 insect cells, baculovirus
Sequence (Q13574 with tags, fused parts or gaps): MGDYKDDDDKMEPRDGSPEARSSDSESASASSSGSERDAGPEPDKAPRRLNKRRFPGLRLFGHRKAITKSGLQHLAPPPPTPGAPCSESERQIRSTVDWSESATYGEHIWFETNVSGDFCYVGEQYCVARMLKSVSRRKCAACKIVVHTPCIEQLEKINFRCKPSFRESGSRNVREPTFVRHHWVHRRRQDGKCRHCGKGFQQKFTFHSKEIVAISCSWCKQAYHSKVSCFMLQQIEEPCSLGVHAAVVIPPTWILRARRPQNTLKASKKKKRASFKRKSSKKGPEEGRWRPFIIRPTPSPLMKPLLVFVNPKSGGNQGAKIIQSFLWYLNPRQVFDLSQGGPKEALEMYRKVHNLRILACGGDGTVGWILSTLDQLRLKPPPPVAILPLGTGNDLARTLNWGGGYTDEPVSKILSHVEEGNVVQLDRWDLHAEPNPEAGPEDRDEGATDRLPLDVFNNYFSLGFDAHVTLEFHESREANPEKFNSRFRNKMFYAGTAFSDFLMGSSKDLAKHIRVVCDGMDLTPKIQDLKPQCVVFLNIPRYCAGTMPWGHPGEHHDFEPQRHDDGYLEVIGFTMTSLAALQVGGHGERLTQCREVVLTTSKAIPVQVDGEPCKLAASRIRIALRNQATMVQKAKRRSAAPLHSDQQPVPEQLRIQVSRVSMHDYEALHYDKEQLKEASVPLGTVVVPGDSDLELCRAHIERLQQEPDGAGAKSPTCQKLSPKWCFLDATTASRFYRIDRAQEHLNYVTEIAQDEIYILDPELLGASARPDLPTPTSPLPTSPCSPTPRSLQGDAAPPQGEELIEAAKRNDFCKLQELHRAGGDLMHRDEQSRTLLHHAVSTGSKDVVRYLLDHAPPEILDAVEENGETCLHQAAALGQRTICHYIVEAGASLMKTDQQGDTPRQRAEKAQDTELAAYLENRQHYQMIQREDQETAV
assay-remarks: Human DGKζ kinase activity inhibition assay (ADP-Glo)
Format: biochemical
assay-conditions: example compounds; recombinant full-length human DGKζ, 1,2-dioleoyl-sn-glycerol 7 μM, ATP 55 μM, 20 min at 22° C.; read-out: IC50 values of examples in in vitro human DGKζ kinase activity inhibition assays
Experimental: Human diacylglycerol kinase zeta (DGKζ) inhibitory activity of compounds of the present invention was quantified employing the human DGKζ kinase activity assay as described in the following paragraphs. In essence, the enzyme activity was measured by quantification of the adenosine-di-phosphate (ADP) generated as a co-product of the enzyme reaction via the “ADP-Glo™ Kinase Assay” kit from the company Promega. […]
metric-name: IC50 (µM)

• CC(C)NC(=O)c1cc(C(=O)c2sc(N(c3ccc(F)cc3)C(C)C(N)=O)nc2N)on1 (racemic) = 0.223
• CC(C(N)=O)N(c1ccc(F)cc1)c1nc(N)c(C(=O)c2cc(CN3CCC(F)C3)no2)s1 (mixture of isomers) = 0.242
• CC(C(N)=O)N(c1ccc(F)cc1)c1nc(N)c(C(=O)c2cc(CN3CCC(F)(F)C(C)C3)no2)s1 (mixture of isomers) = 0.01
